Data credit: ChEMBL document CHEMBL1134324

Listed compounds paired with reported inhibition
Test system: Leishmania tropica
Test: Growth inhibition of MDR (DNM-R150) L. Tropica line at 15 uM concentration
Assay type: functional

{"compound": "CC(=O)O[C@H]1C[C@](C)(O)C23CC(C[C@H](OC(=O)/C=C/c4ccccc4)[C@]2(C)[C@H]1OC(=O)c1ccccc1)C(C)(C)O3 (stereo partly specified)", "inhibition / %": 92.8}
{"compound": "CC(=O)O[C@@H]1C2[C@H](OC(C)=O)[C@H](OC(=O)c3ccccc3)[C@]3(C)[C@@H](OC(=O)c4ccccc4)[C@H](OC(=O)c4ccccc4)C[C@](C)(O)C13OC2(C)C (stereo partly specified)", "inhibition / %": 82.2}
{"compound": "CC(=O)O[C@H]1[C@H](O)[C@@H](C)C23OC(C)(C)C(C[C@H](OC(=O)c4ccccc4)[C@]2(C)[C@H]1OC(=O)c1ccccc1)[C@H]3OC(C)=O (stereo partly specified)", "inhibition / %": 54}
{"compound": "CC(=O)O[C@@H]1[C@H](OC(=O)c2ccccc2)[C@@]2(C)[C@@H](OC(=O)c3ccccc3)CC3[C@@H](OC(C)=O)C2(OC3(C)C)[C@@](C)(O)[C@H]1OC(=O)c1cccnc1 (stereo partly specified)", "inhibition / %": 30.7}
{"compound": "CC(=O)O[C@@H]1C2[C@H](OC(C)=O)[C@H](OC(=O)c3ccccc3)[C@]3(C)[C@@H](OC(=O)c4ccccc4)[C@H](OC(=O)c4cccnc4)C[C@@H](C)C13OC2(C)C (stereo partly specified)", "inhibition / %": 79.3}
{"compound": "CC(=O)OC[C@]12[C@@H](OC(=O)c3ccccc3)CC3[C@@H](OC(=O)c4ccccc4)C1(OC3(C)C)[C@@](C)(O)C[C@@H](OC(=O)c1cccnc1)[C@@H]2OC(C)=O (stereo partly specified)", "inhibition / %": 91.3}

---

Tested on: Leishmania tropica
Assay: Growth inhibition of MDR (DNM-R150) L. Tropica line at 30 uM concentration
Assay type: functional
Listed compounds paired with reported inhibition
recorded-endpoint: inhibition

{"compound": "CC(=O)O[C@H]1[C@H](O)[C@@H](C)C23OC(C)(C)C(C[C@H](OC(=O)c4ccccc4)[C@]2(C)[C@H]1OC(=O)c1ccccc1)[C@H]3OC(C)=O (stereo not given in full)", "recorded-endpoint": "inhibition", "recorded-value": "77.5%"}
{"compound": "CC(=O)O[C@@H]1[C@H](OC(=O)/C=C/c2ccccc2)[C@@]2(C)[C@@H](OC(=O)c3ccccc3)CC3CC2(OC3(C)C)[C@@](C)(O)[C@H]1OC(=O)c1cccnc1 (stereo not given in full)", "recorded-endpoint": "inhibition", "recorded-value": "94.7%"}
{"compound": "CC(=O)O[C@@H]1C2[C@H](OC(C)=O)[C@H](OC(=O)c3ccccc3)[C@]3(C)[C@@H](OC(=O)c4ccccc4)[C@H](OC(=O)c4ccccc4)C[C@](C)(O)C13OC2(C)C (stereo not given in full)", "recorded-endpoint": "inhibition", "recorded-value": "92%"}
{"compound": "CC(=O)O[C@@H]1[C@H](OC(=O)c2ccccc2)[C@@]2(C)[C@@H](OC(=O)c3ccccc3)[C@@H](OC(C)=O)C3CC2(OC3(C)C)[C@@](C)(O)[C@H]1OC(C)=O (stereo not given in full)", "recorded-endpoint": "inhibition", "recorded-value": "90%"}
{"compound": "CC(=O)OC[C@]12[C@@H](OC(=O)c3ccccc3)CC3[C@@H](OC(=O)c4ccccc4)C1(OC3(C)C)[C@@](C)(O)C[C@@H](OC(=O)c1cccnc1)[C@@H]2OC(C)=O (stereo not given in full)", "recorded-endpoint": "inhibition", "recorded-value": "94.8%"}

---

Listed compounds paired with reported inhibition
Tested on: Leishmania tropica
Assay: Growth inhibition of MDR (DNM-R150) L. Tropica line at 15 uM concentration
Format: functional

{"compound": "CC(=O)O[C@H]1C[C@](C)(O)C23CC(C[C@H](OC(=O)c4ccccc4)[C@]2(C)[C@H]1OC(=O)c1ccccc1)C(C)(C)O3 (stereo partly drawn)", "system-under-test": "Leishmania tropica", "inhibition": "89.7%"}
{"compound": "CC(=O)O[C@@H]1[C@H](OC(=O)c2cccnc2)[C@@]2(C)[C@@H](OC(=O)c3ccccc3)[C@@H](OC(C)=O)C3CC2(OC3(C)C)[C@@](C)(O)[C@H]1OC(=O)c1ccccc1 (stereo partly drawn)", "system-under-test": "Leishmania tropica", "inhibition": "44%"}
{"compound": "CC(=O)OC[C@]12[C@@H](OC(=O)c3ccccc3)CC3[C@@H](OC(=O)c4ccccc4)C1(OC3(C)C)[C@H](C)C[C@@H](OC(=O)c1cccnc1)[C@@H]2OC(C)=O (stereo partly drawn)", "system-under-test": "Leishmania tropica", "inhibition": "87.9%"}
{"compound": "CC(=O)O[C@@H]1[C@H](OC(=O)/C=C/c2ccccc2)[C@@]2(C)[C@@H](OC(=O)c3ccccc3)CC3CC2(OC3(C)C)[C@@](C)(O)[C@H]1OC(=O)c1cccnc1 (stereo partly drawn)", "system-under-test": "Leishmania tropica", "inhibition": "90.3%"}
{"compound": "CC(=O)O[C@@H]1[C@H](OC(=O)c2ccccc2)[C@@]2(C)[C@@H](OC(=O)c3ccccc3)[C@@H](OC(C)=O)C3CC2(OC3(C)C)[C@@](C)(O)[C@H]1OC(C)=O (stereo partly drawn)", "system-under-test": "Leishmania tropica", "inhibition": "65%"}
{"compound": "CC(=O)O[C@@H]1[C@H](OC(=O)c2cccnc2)[C@@]2(C)[C@@H](OC(=O)c3ccccc3)[C@@H](OC(=O)c3ccccc3)C3CC2(OC3(C)C)[C@@](C)(O)[C@H]1OC(C)=O (stereo partly drawn)", "system-under-test": "Leishmania tropica", "inhibition": "54%"}
{"compound": "CC(=O)O[C@@H]1[C@H](OC(=O)c2ccccc2)[C@@]2(C)[C@@H](OC(=O)/C=C/c3ccccc3)C[C@H]3[C@@H](OC(C)=O)[C@]2(OC3(C)C)[C@@](C)(O)[C@H]1OC(=O)c1cccnc1", "system-under-test": "Leishmania tropica", "inhibition": "13.5%"}
{"compound": "CC(=O)O[C@@H]1[C@H](OC(=O)c2ccccc2)[C@@]2(C)[C@@H](OC(=O)c3ccccc3)[C@@H](OC(=O)c3ccccc3)C3CC2(OC3(C)C)[C@@](C)(O)[C@H]1OC(C)=O (stereo partly drawn)", "system-under-test": "Leishmania tropica", "inhibition": "79%"}

---

Listed molecules paired with reported inhibition
Tested on: Leishmania tropica
Assay: Growth inhibition of MDR (DNM-R150) L. Tropica line at 30 uM concentration
Type: functional
recorded-endpoint: inhibition (%)

{"molecule": "CC(=O)O[C@@H]1[C@H](OC(=O)c2ccccc2)[C@@]2(C)[C@@H](OC(=O)/C=C/c3ccccc3)C[C@H]3[C@@H](OC(C)=O)[C@]2(OC3(C)C)[C@@](C)(O)[C@H]1OC(=O)c1cccnc1", "recorded-endpoint": "inhibition", "units-symbol": "%", "recorded-value": 45}
{"molecule": "CC(=O)O[C@@H]1[C@H](OC(=O)c2cccnc2)[C@@]2(C)[C@@H](OC(=O)c3ccccc3)[C@@H](OC(C)=O)C3CC2(OC3(C)C)[C@@](C)(O)[C@H]1OC(=O)c1ccccc1 (some centres undefined)", "recorded-endpoint": "inhibition", "units-symbol": "%", "recorded-value": 69.7}
{"molecule": "CC(=O)O[C@@H]1[C@H](OC(=O)c2cccnc2)[C@@]2(C)[C@@H](OC(=O)c3ccccc3)[C@@H](OC(=O)c3ccccc3)C3CC2(OC3(C)C)[C@@](C)(O)[C@H]1OC(C)=O (some centres undefined)", "recorded-endpoint": "inhibition", "units-symbol": "%", "recorded-value": 89}
{"molecule": "CC(=O)O[C@H]1C[C@](C)(O)C23CC(C[C@H](OC(=O)c4ccccc4)[C@]2(C)[C@H]1OC(=O)c1ccccc1)C(C)(C)O3 (some centres undefined)", "recorded-endpoint": "inhibition", "units-symbol": "%", "recorded-value": 94}

---

Listed compounds paired with reported inhibition
System: Leishmania tropica
Experiment: Growth inhibition of MDR (DNM-R150) L. Tropica line at 30 uM concentration
Type: functional

{"compound": "CC(=O)O[C@@H]1C2[C@H](OC(C)=O)[C@H](OC(=O)c3ccccc3)[C@]3(C)[C@@H](OC(=O)c4ccccc4)[C@H](OC(=O)c4cccnc4)C[C@@H](C)C13OC2(C)C (stereo not given in full)", "units-symbol": "%", "inhibition": 94.5}
{"compound": "CC(=O)O[C@@H]1[C@H](OC(=O)c2ccccc2)[C@@]2(C)[C@@H](OC(=O)c3ccccc3)[C@@H](OC(=O)c3ccccc3)C3CC2(OC3(C)C)[C@@](C)(O)[C@H]1OC(C)=O (stereo not given in full)", "units-symbol": "%", "inhibition": 93}
{"compound": "CC(=O)O[C@@H]1[C@H](OC(=O)c2ccccc2)[C@@]2(C)[C@@H](OC(=O)c3ccccc3)CC3[C@@H](OC(C)=O)C2(OC3(C)C)[C@@](C)(O)[C@H]1OC(=O)c1cccnc1 (stereo not given in full)", "units-symbol": "%", "inhibition": 69.5}
{"compound": "CC(=O)O[C@H]1C[C@](C)(O)C23CC(C[C@H](OC(=O)/C=C/c4ccccc4)[C@]2(C)[C@H]1OC(=O)c1ccccc1)C(C)(C)O3 (stereo not given in full)", "units-symbol": "%", "inhibition": 94.3}
{"compound": "CC(=O)OC[C@]12[C@@H](OC(=O)c3ccccc3)CC3[C@@H](OC(=O)c4ccccc4)C1(OC3(C)C)[C@H](C)C[C@@H](OC(=O)c1cccnc1)[C@@H]2OC(C)=O (stereo not given in full)", "units-symbol": "%", "inhibition": 93.7}
